This listing pairs compounds with measured Post-emergence efficacy against PHBPU in %.
Test system: Pharbitis purpurea (PHBPU)
Method Notes: E. Herbicidal post-emergence efficacy, PHBPU
Assay type: in vivo
Run Conditions: application rate 320 g/ha
Experimental: Seeds of monocotyledonous and dicotyledonous weeds and crop plants were placed in sandy loam in plastic or organic planting pots, covered with soil and cultivated in a greenhouse under controlled growth conditions. 2 to 3 weeks after sowing, the test plants were treated at the one-leaf stage. […]
Please respond with the number in % and leave the unit unwritten.

Past entries and their recorded results:
O=S(=O)(CCCCl)Oc1ccccc1Oc1ncc(F)cn1 [Example I-5] :: 80
O=S(=O)(CCC(F)=C(F)F)Oc1c(F)cccc1Oc1ncc(Cl)cn1 [Example I-70] :: 100
Cc1cccc(Oc2ncc(F)cn2)c1OS(=O)(=O)CCCC(F)(F)F [Example I-46] :: 90
O=S(=O)(CCCCl)Oc1ccccc1Oc1ncc(Cl)cn1 [Example I-2] :: 100
N#Cc1cccc(Oc2ncc(Cl)cn2)c1OS(=O)(=O)CCCC(F)(F)F [Example I-81] :: 100
O=S(=O)(CCC1CC1)Oc1c(F)cccc1Oc1ncc(Cl)cn1 [Example I-55] :: 100
O=S(=O)(CCCC(F)(F)F)Oc1c(Cl)cccc1Oc1ncc(Br)cn1 [Example I-34] :: 100
CC(C)CCS(=O)(=O)Oc1ccccc1Oc1ncc(Cl)cn1 [Example I-25] :: 90

Query block: Fill in the blank: the reported Post-emergence efficacy against PHBPU in % of O=S(=O)(CCCC(F)(F)F)Oc1c(Cl)cccc1Oc1ncc(Cl)cn1 [Example I-39] is ____.
Result block: 100

Query block: Likewise for O=S(=O)(CCCC(F)(F)F)Oc1c(F)cccc1Oc1ncc(Br)cn1 [Example I-41] ?
Result block: 100

Query block: Likewise for O=S(=O)(CCCC(F)(F)F)Oc1c(F)cccc1Oc1ncc(F)cn1 [Example I-42] ?
Result block: 100

Query block: Likewise for CCCCCS(=O)(=O)Oc1ccccc1Oc1ncc(Cl)cn1 [Example I-24] ?
Result block: 80

Query block: Likewise for O=S(=O)(CCCC(F)(F)F)Oc1c(F)cccc1Oc1ncc(Cl)cn1 [Example I-49] ?
Result block: 100

Query block: Likewise for CCCS(=O)(=O)Oc1ccccc1Oc1ncc(Cl)cn1 [Example I-3] ?
Result block: 90
